So I've got a bunch of compounds here, and I need their Ki values.
- ASSAYED TARGET: JAK1 (Homo sapiens, UniProt P23458)
- Construct: made in house; host or cells: SF9 insect cells (baculovirus)
- Sequence (P23458 852-1154): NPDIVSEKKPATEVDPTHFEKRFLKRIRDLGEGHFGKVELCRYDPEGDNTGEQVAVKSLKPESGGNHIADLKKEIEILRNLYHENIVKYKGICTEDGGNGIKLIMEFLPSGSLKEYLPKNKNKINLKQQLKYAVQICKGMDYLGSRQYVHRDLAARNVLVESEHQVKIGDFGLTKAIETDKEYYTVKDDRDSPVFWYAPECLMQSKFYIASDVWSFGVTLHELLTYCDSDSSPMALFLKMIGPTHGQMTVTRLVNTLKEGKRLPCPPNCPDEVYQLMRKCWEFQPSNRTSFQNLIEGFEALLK
- ASSAY INFO: JAK1 inhibition (Table 4)
- Format: biochemical
- DETAILS: read-out: JAK1 Ki
Answers are plain numbers, in nM.

CS(=O)(=O)[C@H]1CC[C@H](n2c(CO)nc3cnc4[nH]ccc4c32)CC1 [Example 651] ... 9.87

Hey, quick one: what's Ki for each of these?
1. COCC(=O)N1CCC(n2c(Cc3conc3C)nc3cnc4[nH]ccc4c32)CC1 [Example 119]
2. OC[C@@H](O)c1nc2cnc3[nH]ccc3c2n1C1CCCCC1 [Example 688]
3. CS(=O)(=O)N1[C@@H]2CC[C@H]1C[C@H](n1cnc3cnc4[nH]ccc4c31)C2 [Example 97]

Marked response:
1. 77.7
2. 1.77
3. 3.51
